Recorded values, source patent US20230123334A1.

System: HEK293 cells
PROTOCOL NOTES: Preliminary screening as DNA vectors, GFP transfection of HEK293 cells
Assay type: cell-based
CONDITION INFO: amino lipid/DOPE liposome with 75 ng plasmid DNA (psin-EGFP-IRES-Puro); number of GFP-expressing cells divided by total nuclei (Hoechst)
Procedure: Cell line: HEK293 cells (ATCC CRL-1573™) Medium: DMEM supplemented with 10% fetal bovine serum (Invitrogen) Mode of screening: cell transfection on 96-well plates Detection (readout): percentage of the number of GFP fluorescent cells relative to the total number of cells (the total number of cells was measured using nucleus dye Hoechst—see FIG. 2). […] 4. […] The absolute transfection efficiency was calculated as follows: […]
Absolute DNA transfection efficiency in HEK293 cells values for the compounds below.
Respond with the bare value in %.

Param request: Absolute DNA transfection efficiency in HEK293 cells | system HEK293 cells | item CCCCCCCCCCCCCCCCCCNc1nc(NCCN(CC)CC)nc(SCCCCCCCC)n1 [S8N18 D7] 4.1

Param request: Absolute DNA transfection efficiency in HEK293 cells | system HEK293 cells | item CCCCCCCCCCCCCCCCCCSc1nc(NCCCCCCCC)nc(NCCCN2CCN(C)CC2)n1 [S18N8 D9] 6.6

Param request: Absolute DNA transfection efficiency in HEK293 cells | system HEK293 cells | item CCCCCCCCCSc1nc(NCCCN2CCOCC2)nc(SCCCCCCC)n1 [S7S9 D8] 12.2

Param request: Absolute DNA transfection efficiency in HEK293 cells | system HEK293 cells | item CCCCCCCCCCCCNc1nc(NCCN(CC)CC)nc(SCCCCCCCCCC)n1 [S10N12 D7] 5.9

Param request: Absolute DNA transfection efficiency in HEK293 cells | system HEK293 cells | item CCCCCCCCCSc1nc(NCCCCCCCC)nc(NCC2CCN(C)CC2)n1 [S9N8 D10] 17.2

***
Param request: Absolute DNA transfection efficiency in HEK293 cells | system HEK293 cells | item CCCCCCCCCCCSc1nc(NCCN2CCN(C)CC2)nc(SCCCCCC)n1 [S6S11 D5] 32.7

Param request: Absolute DNA transfection efficiency in HEK293 cells | system HEK293 cells | item CCCCCCCCCCCNc1nc(NCCCN2CCN(C)CC2)nc(SCCCCCCCC)n1 [S8N11 D9] 63.6

---

Tested on: HEK293 cells
PROTOCOL NOTES: Preliminary screening as mRNA vectors, EGFP mRNA transfection of HEK293 cells
Format: cell-based
CONDITION INFO: EGFP mRNA 50 ng per well, 96-well plates; percentage of GFP fluorescent cells relative to total number of cells (Hoechst)
MEASURED METRIC: Absolute mRNA transfection efficiency in HEK293 cells (%)
Respond with the bare value in %.

State, in one line, measured Absolute mRNA transfection efficiency in HEK293 cells of CCCCCCCCCCCCNc1nc(NCCN(C)C)nc(SCCCCCCCCCCC)n1 [Compound D1S11N12] 27.3

State, in one line, measured Absolute mRNA transfection efficiency in HEK293 cells of CCCCCCCCCCCCCCCNc1nc(NCCN(CC)CC)nc(SCCCCCCCCCCC)n1 [Compound D7S11N15] 6.5

State, in one line, measured Absolute mRNA transfection efficiency in HEK293 cells of CCCCCCCCCCCSc1nc(NCCCN2CCN(C)CC2)nc(SCCCCCC)n1 [Compound D9S6S11] 8.5

Please look at the following compound next.
State, in one line, measured Absolute mRNA transfection efficiency in HEK293 cells of CCCCCCCCCCCCSc1nc(NCCCCCCC)nc(NCC2CCN(C)CC2)n1 [Compound D10S12N7] 1.7
